# Tested on: HepG2 (hepatocellular carcinoma)
# measurementNotes: SRB cell growth inhibition assay, HepG2
# Type: cell-based
# testSettings: Homo sapiens, HepG2, 48h continuous treatment, mean ± SD, n = 3
quantityMeasured: GI50 (µM)

Cc1c2ccncc2c(C)c2c1[nH]c1ccccc12 [Ellipticine, reference compound] | 0.8

[P] COC(=O)c1sc2cccnc2c1Nc1ccc(OC)cc1N
[Q] COC(=O)c1sc2cccnc2c1Nc1ccccc1N
# input Could you point out whether the larger GI50 belongs to P or to Q ? When you have decided, please share the label of that item.
# output Q
(Q: 99.3 µM, P: 1.63 µM)

* * *

Listing: melting point of selected molecules

COC(=O)c1sc2cccnc2c1Nc1ccccc1N | 204 to 206 °C

# input Which measured melting point value corresponds to COC(=O)c1sc2cccnc2c1Nc1ccc(OC)cc1N ?
# output 172 to 174 °C

# input Moving on to the next molecule: COC(=O)c1sc2cccnc2c1Nc1ccc([N+](=O)[O-])cc1
# output 203 to 205 °C

# input Another molecule: COC(=O)c1sc2cccnc2c1Nc1ccc(OC)cc1[N+](=O)[O-]
# output 213 to 214 °C

# input Record: COC(=O)c1sc2cccnc2c1Nc1ccccc1[N+](=O)[O-]
# output 202 to 204 °C
